read-out: Cytochrome P450 (CYP24A1), CYP24A1 (gene 1591); assay: LTEA_HepaRG_CYP24A1: Life Technologies and Expression Analysis (LTEA) Assay for Cytochrome P450 (CYP24A1) using HepaRG (AID 2283478); conditions: mRNA level, 48 h; actives raise or lower the signal
Active and inactive are the calls of the source. Rule for the calls: active = hit-call score of the fitted dose curve at least 0.9, where 1 is the maximum; inactive = score below 0.9.
REPORTED_METRIC: outcome

                      smiles_representation  reported_value
0  CC(C)c1cccc(C(C)C)c1N1C(=O)c2ccc(O)cc2C1=O        inactive
1                         C=CC(=C)CCC=C(C)C        inactive
2  O=C(CCCCCCCCc1cccnc1)N1CCC(C=C(c2ccccc2)c2ccccc2)CC1        inactive
3  COCCOc1cc2cc(C(=O)NC3CCN(C(C)C)CC3)n(CC(=O)Nc3ccc(Cl)cn3)c2cn1        inactive
4                          CCCCCCCCCCCCCCCO        inactive
5  CC(C)(O)c1coc(S(=O)(=O)NC(=O)Nc2c3c(cc4c2CCC4)CCC3)c1        inactive

====

molecular target: Aryl hydrocarbon receptor (Homo sapiens) (UniProt P35869); test: ATG_Ahr_CIS: Attagene CIS-FACTORIAL HepG2 Assay for human Aryl Hydrocarbon Receptor (Ahr) (AID 2282930); conditions: HepG2 AhR cis-factorial reporter transcription; actives raise or lower the signal
Sequence (P35869 whole entry, looked up): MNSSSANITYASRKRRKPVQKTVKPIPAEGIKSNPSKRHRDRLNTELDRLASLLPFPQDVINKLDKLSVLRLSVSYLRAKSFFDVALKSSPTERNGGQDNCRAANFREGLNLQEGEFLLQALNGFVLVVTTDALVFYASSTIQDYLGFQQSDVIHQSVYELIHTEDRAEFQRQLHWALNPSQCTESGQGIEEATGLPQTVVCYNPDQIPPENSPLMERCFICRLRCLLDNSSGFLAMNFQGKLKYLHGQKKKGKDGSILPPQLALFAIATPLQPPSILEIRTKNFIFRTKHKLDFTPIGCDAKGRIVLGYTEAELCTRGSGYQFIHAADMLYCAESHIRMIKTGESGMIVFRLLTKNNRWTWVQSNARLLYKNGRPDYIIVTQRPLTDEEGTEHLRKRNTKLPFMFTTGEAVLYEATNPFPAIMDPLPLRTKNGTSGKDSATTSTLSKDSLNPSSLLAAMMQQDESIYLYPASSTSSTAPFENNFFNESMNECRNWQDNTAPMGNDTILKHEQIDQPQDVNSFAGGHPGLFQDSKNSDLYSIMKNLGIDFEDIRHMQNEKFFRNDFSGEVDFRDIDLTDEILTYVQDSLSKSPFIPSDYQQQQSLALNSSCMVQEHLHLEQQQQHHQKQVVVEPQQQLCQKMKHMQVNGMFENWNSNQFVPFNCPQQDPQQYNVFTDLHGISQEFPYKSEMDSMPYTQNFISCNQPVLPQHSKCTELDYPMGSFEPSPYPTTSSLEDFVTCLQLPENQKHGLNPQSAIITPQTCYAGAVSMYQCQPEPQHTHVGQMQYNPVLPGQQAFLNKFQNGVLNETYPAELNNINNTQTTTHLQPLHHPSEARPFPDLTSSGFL
Calls of active or inactive are those of the source. Rule for the calls: active = hit-call score of the fitted dose curve at least 0.9, where 1 is the maximum; inactive = score below 0.9.

COMPOUND	AC50
O=C(O)c1cccc(Oc2ccccc2)c1	inactive
O=C(OC[C@H]1O[C@@H](OC(=O)c2cc(O)c(O)c(OC(=O)c3cc(O)c(O)c(O)c3)c2)[C@H](OC(=O)c2cc(O)c(O)c(OC(=O)c3cc(O)c(O)c(O)c3)c2)[C@@H](OC(=O)c2cc(O)c(O)c(OC(=O)c3cc(O)c(O)c(O)c3)c2)[C@@H]1OC(=O)c1cc(O)c(O)c(OC(=O)c2cc(O)c(O)c(O)c2)c1)c1cc(O)c(O)c(OC(=O)c2cc(O)c(O)c(O)c2)c1	inactive
CC(C)=CCC/C(C)=C/CO	inactive
CC(C)CCCCCCCOC(=O)CCCCC(=O)OCCCCCCCC(C)C	64.9 µM (active)
O=P(OC(CCl)CCl)(OC(CCl)CCl)OC(CCl)CCl	inactive
CC1(C)C(=O)N(Br)C(=O)N1Br	68.5 µM (active)
CC/C(=C\C(=N/O)C(N)=O)C(C)[N+](=O)[O-] (configuration not stated)	inactive

====

read-out: Tumor necrosis factor (Homo sapiens); assay: BSK_LPS_TNFa: BioMAP Diversity Plus: LPS Assay for Tumour Necrosis Factor alpha (TNFa) Biomarker Activity (AID 2283085); conditions: primary human HUVEC with PBMC; actives raise or lower the signal;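 for AC50: TNFa protein level quantified by ELISA in the co-culture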
Active and inactive are the calls of the source. How the source made its calls: active means hit-call score of the fitted dose curve at least 0.9, where 1 is the maximum; inactive means score below 0.9.
REPORTED_METRIC: AC50

COMPOUND	REPORTED_METRIC	REPORTED_VALUE
CCc1cc(SCc2sc(-c3ccc(C(F)(F)F)cc3)nc2CN2CCN(c3ccc(OC)cc3)CC2)ccc1OCC(=O)O	AC50	38.1 µM (active)
CC(O)CN(CCN(CC(C)O)CC(C)O)CC(C)O (centres undefined)	AC50	inactive
O=C1CCCCCN1	AC50	inactive
CC[C@H]1OC(=O)[C@H](C)[C@@H](O[C@H]2C[C@@](C)(OC)[C@@H](O)[C@H](C)O2)[C@H](C)[C@@H](O[C@@H]2O[C@H](C)C[C@H](N(C)C)[C@H]2O)[C@](C)(O)C[C@@H](C)C(=O)[C@H](C)[C@@H](O)[C@]1(C)O	AC50	inactive
C1=CCCC=CCCC=CCC1	AC50	inactive
CC(C)CCCCCCOC(=O)c1ccc(C(=O)OCCCCCCC(C)C)c(C(=O)OCCCCCCC(C)C)c1	AC50	inactive
CC[C@H](C)C(=O)O[C@H]1C[C@@H](C)C=C2C=C[C@H](C)[C@H](CC[C@@H]3C[C@@H](O)CC(=O)O3)[C@H]21	AC50	33.5 µM (active)
Cc1ccc(O)cc1	AC50	inactive
O=C(O)CC(O)C(=O)O (centres undefined)	AC50	inactive

Numbers sourced from PubChem BioAssay (EPA / NIEHS).
